B1: KIAA0774 (parent)
chain: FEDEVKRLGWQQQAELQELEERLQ

variants of: B1; test: protein stability index of a GFP-peptide fusion (GPS, HEK-293T) (PSI 1-6); higher = more stable; settings: c terminus: a fixed tail appended;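 also: lentivirally expressed fusions sorted by FACS into six bins by GFP to DsRed ratio, PSI derived from sequencing read proportions per bin multiplied by bin number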
// reported protein stability index for each item listed

| var | protein stability index |
| --- | --- |
| A14D | 5.2 |
| E2K | 2.27 |
| L8M | 2.83 |
| F1M | 3.68 |
| Q12G | 4.14 |
| E18F | 2.13 |
| D3Q | 3.29 |
| E18L | 2.63 |
| L16E | 5.1 |
| E18D | 4.61 |
| E18H | 3.37 |
